Tested on: MDA-MB-435 melanoma
assay-text: NCI-60 one-dose screen, 48 h
cond: 10 µM unless noted
This is part of a sample that, as a whole, favours compounds with a hit. Of some 83,000 tested, about 20% had one in any assay. Activity calls are given as the source filed them. The calls were made as follows: active = growth percent below 10; inactive = the rest.
Tick one outcome: true for active, false for inactive

Below, 2 compounds whose answers are already recorded.
Fill in: this test's call for "C[C@]12CCc3sc(NCCc4ccccc4)nc3C1=CC[C@@H]1[C@@H]2CC[C@]2(C)C(=O)CC[C@@H]12" is ___
false

For "CCn1cnc2c(Nc3cccc(Cl)c3)nc(N[C@@H]3CCCC[C@@H]3N)nc21" then?
false

New cases:
How was "C#C[C@]1(OC(=O)CCCCCC)CC[C@H]2[C@@H]3CCC4=CC(=O)CC[C@@H]4[C@H]3CC[C@@]21C" classified in this test?
false

Try CC12CCC3C(CCC4Cc5[nH]c6ccccc6c5CC43C)C1CCC2O (configuration not stated) next.
true

---

Tested on: NCI/ADR-RES ovarian
assay-text: NCI-60 one-dose screen, 48 h
cond: 10 µM unless noted
This is part of a sample that, as a whole, favours compounds with a hit. Of some 83,000 tested, about 20% had one in any assay. The source made the active and inactive calls. Rule for the calls: active = growth percent below 10; inactive = the rest.
Field 'call' accepts 1.0 for active, 0.0 for inactive

Hello, I am checking results. What call was entered for "CC(C)=CCC/C(C)=C/C=N\N=C(/N)N[N+](=O)[O-]" ?
0.0

Continuing:
Query: recorded result category for "CC(=O)Nc1nc2c(s1)CC[C@@]1(C)C2=CC[C@H]2[C@@H]3CC[C@H](O)[C@@]3(C)CC[C@@H]21" in this test
0.0

Request: "CC(=O)O[C@H](C[C@H](C(C)C)N(C)C(=O)[C@@H](NC(=O)[C@H]1CCCCN1C)C(C)C)c1cccc(C(=O)N[C@@H](Cc2ccccc2)C[C@H](C)C(=O)O)n1"
1.0

Here is the next molecule: "COC(=O)[C@H](Cc1ccccc1)NNC(=O)c1csc([C@@H](C[C@H](C(C)C)N(C)C(=O)[C@@H](NC(=O)[C@H]2CCCCN2C)C2CC2)OC(C)=O)n1"
0.0

Entry to check: "COC(=O)[C@H](Cc1ccccc1)NC(=O)c1csc([C@@H](C[C@H](C(C)C)N(C)C(=O)[C@@H](NC(=O)[C@H]2CCCCN2C)C2CC2)OC(C)=O)n1"
0.0

What about this molecule? "CCn1c2ccccc2c2cc(C(=O)c3cccc4c3CCCN4)ccc21"
0.0

---

# growth per entry
System: NCI-H522 lung
assay-text: NCI-60 one-dose screen, 48 h (100 = growth as untreated, 0 = no growth, -100 = all killed)
cond: 10 µM unless noted
About 83,000 compounds went through this panel and 20% of them were active in at least one assay; those are over-represented in the sample as a whole.
Respond numerically; units are % and should not be typed.

Any idea what growth came out for "Nc1c(F)cc(-c2nc3cc(F)ccc3[se]2)cc1Br" on NCI-H522 lung?
67.1

---

Test system: A549/ATCC NSCLC
assay-text: NCI-60 one-dose screen, 48 h (100 = growth as untreated, 0 = no growth, -100 = all killed)
cond: 10 µM unless noted
This is part of a sample that, as a whole, favours compounds with a hit. Of some 83,000 tested, about 20% had one in any assay. The source made the active and inactive calls. How the source made its calls: active means growth percent below 10; inactive means the rest.
Catalogue of molecules with associated growth

Entry "COC(=O)CC[C@H](Cc1ccccc1)NC(=O)c1csc([C@@H](C[C@H](C(C)C)N(C)C(=O)[C@@H](NC(=O)[C@H]2CCCCN2C)C(C)C)OC(C)=O)n1" : reported growth = ?
40.4% (inactive)

Now consider "C[CH2][Sn]([Cl])([Cl])[CH2]C.Oc1ccccc1C=NCCN=Cc1ccccc1O" .
96% (inactive)

Another: "O=c1[nH]c2ccc([N+](=O)[O-])cc2c(=O)o1"
107% (inactive)

Next:
Record request: growth value, item "CCOc1ccccc1C(=O)OCC(Cl)(Cl)Cl"
106% (inactive)

Subsequent entry: "COc1cc2c(cc1OCCCn1c(-c3ccccn3)nc3ccccc31)N=C[C@@H]1CCCN1C2=O"
20% (inactive)

Next: "CC1=C([Te]c2ccc(O)cc2)C(=O)c2ccccc2C1=O"
6.97% (active)

Further, for "C1CCC2(CC1)OOCNCOO2" ?
102% (inactive)

Now the same for Cc1ccc2c(C(C[N+](=O)[O-])c3cccs3)c(-c3ccccc3)[nH]c2c1 (stereo not given)
28.8% (inactive)

Queued: "CC(=O)O[C@H]1CC[C@]2(C)[C@H]3CC[C@]4(C)[C@@H](OC(C)=O)CC[C@H]4[C@@H]3[C@@H](C)[C@]2(O)C1"
114% (inactive)

What do we get for "COC(=O)CCc1c[nH]c2ccc(N(CCCl)CCCl)cc12" ?
44% (inactive)
